Measured values drawn from patent US7112586B2 for this set.

# study-system: Motilin Receptor (Oryctolagus cuniculus)
# Construct: The muscle tissue was homogenized in 10 volumes of 50 mM Tris-Cl; from tissue; host or cells: rabbit colon smooth muscle, crude membrane homogenate
# Sequence (G1T803 1-400): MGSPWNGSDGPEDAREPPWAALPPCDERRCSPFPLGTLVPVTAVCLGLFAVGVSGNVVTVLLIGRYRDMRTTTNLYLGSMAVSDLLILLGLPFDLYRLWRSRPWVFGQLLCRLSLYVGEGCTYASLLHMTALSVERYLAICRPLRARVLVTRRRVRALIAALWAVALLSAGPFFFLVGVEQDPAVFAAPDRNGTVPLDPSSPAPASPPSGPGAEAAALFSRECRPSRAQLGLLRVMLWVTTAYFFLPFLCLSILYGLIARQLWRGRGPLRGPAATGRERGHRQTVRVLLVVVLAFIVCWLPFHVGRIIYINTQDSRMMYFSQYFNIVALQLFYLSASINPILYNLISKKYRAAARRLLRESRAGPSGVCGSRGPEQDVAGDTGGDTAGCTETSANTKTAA
# experimental-protocol: Motilin receptor binding, rabbit colon membranes, 125I porcine motilin
# Parameters: dose or concentration left out as unconfirmed
# details: rabbit colon membranes; read-out: Rabbit Colon % Inh
# Method: Rabbit colon was removed, dissected free from the mucosa and serosa, and diced into small pieces. […] The pellet was washed twice with 1 ml of cold saline, the supernatant was aspirated, and the pellet at the bottom of the tube counted in a gamma counter. Non-specific binding was determined by the inclusion of 1 mM of unlabeled motilin. IC50 values were determined from Kaleidograph curves.
Please enter 1 where inhibition is greater than or equal to 70%, and -1 where it is lower.

Solved entries (count: 5):
>  <molecule>
O=C(CCCC(=O)N(Cc1ccc(F)cc1)c1cccc(OCCN2CCCCC2)c1)N(CCc1ccccc1)Cc1ccccc1 [compound 182]

>  <label>
1

$$$$
>  <molecule>
O=C(c1ccc(F)cc1)N(CC1CCCC(N(Cc2cccc(Cl)c2)C(=O)Cc2cccs2)C1)c1cccc(OCCN2CCOCC2)c1 (stereo not shown) [compound 248]

>  <label>
1

$$$$
>  <molecule>
O=C(CCC(=O)N(Cc1ccccc1F)c1cccc(OCCN2CCOCC2)c1)N(CCc1ccccc1)Cc1ccccc1 [compound 165]

>  <label>
-1

$$$$
>  <molecule>
O=C(CCCC(=O)N(Cc1ccc(F)cc1)c1cccc(OCCN2CCCC2)c1)N(CCc1ccccc1)Cc1cccc(C(F)(F)F)c1 [compound 200]

>  <label>
1

$$$$
>  <molecule>
O=C(CCCC(=O)N(Cc1ccc(F)cc1)c1cccc(OCCN2CCOCC2)c1)N(CCc1ccccc1)Cc1cccc(Cl)c1 [compound 162]

>  <label>
1

$$$$

Asked: Item Cc1c(OCCN2CCCC2)cccc1N(Cc1ccc(F)cc1)C(=O)CCCC(=O)N(CCc1ccccc1)Cc1cccc(C(=O)O)c1 [compound 215] with inhibition of 70% or above?
Given back: 1

Asked: Item O=C(Nc1ccccc1)N(CC1CCCC(N(Cc2cc(Cl)cc(Cl)c2)C(=O)C(Cl)(Cl)Cl)C1)c1cccc(OCCN2CCOCC2)c1 (stereo not shown) [compound 60] with inhibition of 70% or above?
Given back: -1

Asked: Item O=C(Nc1ccccc1)N(CC1CCCC(N(Cc2cccc(Cl)c2)C(=O)C(Cl)(Cl)Cl)C1)c1cccc(OCCN2CCCC2)c1 (stereo not shown) [compound 223] with inhibition of 70% or above?
Given back: 1

Asked: Item Cc1c(OCCN2CCCC2)cccc1N(Cc1ccc(F)cc1)C(=O)CCCC(=O)N(CCc1ccccc1)Cc1ccccc1 [compound 196] with inhibition of 70% or above?
Given back: 1

Asked: Item O=C(Nc1ccccc1)N(CC1CCCC(N(Cc2ccccc2)S(=O)(=O)c2ccc3ccccc3c2)C1)c1cccc(OCCN2CCOCC2)c1 (stereo not shown) [compound 57] with inhibition of 70% or above?
Given back: -1

Asked: Item O=C(c1ccc(F)cc1)N(CC1CCCC(N(Cc2ccc(Cl)c(Cl)c2)C(=O)C(Cl)(Cl)Cl)C1)c1cccc(OCCN2CCOCC2)c1 (stereo not shown) [compound 99] with inhibition of 70% or above?
Given back: -1

Asked: Item O=C(Nc1ccccc1)N(CC1CCCC(N(Cc2ccccc2)C(=O)c2cccc([N+](=O)[O-])c2)C1)c1cccc(OCCN2CCOCC2)c1 (stereo not shown) [compound 45] with inhibition of 70% or above?
Given back: -1
